Recorded values, source PubChem BioAssay (NCI).

Parameter growth inhibition: see the listing below.
Test: NCI Yeast Anticancer Drug Screen. Data for the cln2 rad14 strain (AID 165);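 further: 0% = growth equal to vehicle treated cultures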
Conditions: S. cerevisiae cln2 rad14 strain, at 50.0 µM, hits give high values
Compounds without any hit were thinned out: in the full panel of roughly 79,000, 15% have a hit.

| MOLECULE | UNIT OF MEASURE | growth inhibition |
| --- | --- | --- |
| COc1ccc(CC[N+]2=Cc3cc(OC)c(OC)cc3CC2)cc1OC | % | 13.3 |
| COc1ccc(C(=O)N=C(N)n2nc(C)cc2C)cc1 | % | -16.1 |
| COc1ccc(C#CC(O)C(F)(F)F)cc1 (stereo not drawn) | % | -18.4 |
| NC(=O)/C=C/C(N)=O | % | -13.5 |
| OC(Cc1cccc(=S)[nH]1)(c1ccccc1)c1ccccc1 | % | -37.9 |
| O=C1O/C(=C(\Br)c2ccc([N+](=O)[O-])cc2)c2ccccc21 | % | 0.85 |
| COc1ccc(Nc2ccnc3cc(Cl)ccc23)cc1CCN | % | 10.6 |
| Cc1cc(=O)n(Cc2ccccc2)n1-c1ccccc1 | % | 9.4 |

====

Assay: NCI Yeast Anticancer Drug Screen. Data for the cln2 rad14 strain (AID 165);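 further: 0% = growth equal to vehicle treated cultures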
Conditions: S. cerevisiae cln2 rad14 strain, at 50.0 µM, hits give high values
About 79,000 compounds went through this panel and 15% of them were active in at least one assay; those are over-represented in the sample as a whole.

| COMPOUND | growth inhibition [%] |
| --- | --- |
| CC(=O)C1C(=O)C(=O)N(Cc2ccccc2)C1=O (stereo not given) | -19.3 |
| O=c1oc2ccc(Br)cc2cc1-n1nnc2ccccc21 | 0.6 |
| N#CC1C(=O)NC(=O)C(C#N)C1C1C(=O)NC2CCCCC21 (stereo not given) | 23.2 |
| OCCN(Cc1ccccc1)Cc1ncccc1O | 8.85 |
| CCN(CC)CCNC(=O)Cc1cc(O)c2c(c1O)C(=O)c1ccccc1C2=O | 40.9 |
| Cc1onc(-c2ccccc2)c1C(=O)N1CCCN2C(=O)c3ccccc3C21 (stereo not given) | 2 |
| CCOC(=O)c1nc2ccc(C(F)(F)F)cc2nc1NCc1ccc(F)cc1 | 10.2 |
| COc1cc(CSCC(=O)O)ccc1O | -19.4 |
| COc1ccc2[nH]c3c(c2c1)-c1ncncc1CC3 | 6.1 |
| N#CC1(c2ccccc2)OC1(C#N)c1ccccc1 (stereo not given) | -22.2 |
| N/N=C(\C(=O)Nc1ccc(Cl)cc1Cl)C(c1cnc2ccccc2n1)[N+](=O)[O-] (stereo not given) | -20.6 |
| C[S+](C)CCOC(=O)C(=[N+]=[N-])c1ccc([N+](=O)[O-])cc1 | 25.8 |
| CC(=O)NNc1nc(C)c(C(/C=C/c2ccc([N+](=O)[O-])cc2)=N/NC(N)=O)s1 | 16.6 |
| Clc1nc(Sc2ccc(Br)cc2)c(Cl)c(Sc2ccc(Br)cc2)n1 | -0.8 |
| CC(O)C(C)[N+](=O)[O-] (stereo not given) | 11.6 |
| Cc1cc(C)c2c(c1)C(=O)c1ccccc1C2=O | 38 |
| CCOCNC(=O)Nc1ccccc1 | -37.5 |
| COc1ccc2ccccc2c1NC(C)=O | -21.8 |
| Nc1ccc(S(=O)(=O)NC(=O)c2ccccc2)cc1 | -26.9 |
| c1ccc2cc(CNCCCCNCCCNCc3ccc4ccccc4c3)ccc2c1 | 46.2 |
| OC1CCCCC12CC2 (stereo not given) | -3.55 |
| CCC(/C=N\O)CC | -4.05 |
| CCOC(=O)/C=C(\N=P(c1ccccc1)(c1ccccc1)c1ccccc1)C(F)(F)C(F)(F)C(F)(F)C(F)(F)C(F)(F)F | 18.4 |
| COC1CCC(/C(C#N)=C/C2CCC(NC(C)=O)CC2)CC1 (stereo not given) | 1 |
| CCCCCCCCCc1cc[n+](C2=C([O-])C3=C(C(=O)C2=O)C2c4ccccc4C3c3ccccc32)cc1 | 46 |
| CCCCCC(=O)Cc1cc(OC)cc2c1C(=O)Oc1cc(O)c(C(=O)O)c(CC(=O)CCCCC)c1O2 | 79.4 |
| CN(C)C(CO)(CO)CO | -0.75 |
| CC(=O)NCCC(=O)NCCSC(C)=O | 6.15 |
| CC1(C)C2CCC1(CC(=O)O)C(O)C2=O (stereo not given) | -12.6 |
| COc1cc(OC)c(-c2cc(C(=O)O)c3cc4ccccc4cc3n2)c(OC)c1 | 16.7 |

====

Parameter growth inhibition: see the listing below.
Test: NCI Yeast Anticancer Drug Screen. Data for the sgs1 mgt1 strain (AID 161);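 further: 0% = growth of cultures given vehicle only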
Settings: S. cerevisiae sgs1 mgt1 strain, at 50.0 µM, hits give high values
Compounds without any hit were thinned out: in the full panel of roughly 79,000, 15% have a hit.
OUTCOME MEASURE: growth inhibition (%)

| COMPOUND | UNIT OF MEASURE | REPORTED VALUE |
| --- | --- | --- |
| CCC(NC(C)c1ccccc1)C(O)c1ccc(OCc2ccccc2)c(OCc2ccccc2)c1 (stereo unspecified) | % | 92.3 |
| O=C(N/N=C/c1ccccc1)c1c(-c2cccnc2)cnc2ccccc12 | % | -10.6 |
| CCCN(CCC)C(=O)c1ccc(C(C)C)cc1 | % | 19.1 |
| CCCCN(CCCC)CCCNC(=S)Nc1ccccc1 | % | 38.1 |
| O=C(O)C(SSC(C(=O)O)(c1ccccc1)c1ccccc1)(c1ccccc1)c1ccccc1 | % | 54.6 |
| COC(=O)C1(C(=O)OC)O[C@@H](c2ccccc2)[C@H]2C(=O)N(C)C(=O)[C@H]21 | % | 7.45 |
| CN(C)C(=O)C1C2CCC(C3CC32)C1C(=O)N(C)C (stereo unspecified) | % | 37.2 |
| Cc1c(F)c(F)c(-c2c(F)c(F)c(C)c(F)c2F)c(F)c1F | % | -17.3 |
| CC(O)(c1ccccc1)C1CC1c1ccccc1 (stereo unspecified) | % | 20.8 |
| CC1CC2(CCC1OCc1ccccc1)OCCO2 (stereo unspecified) | % | -2.3 |
| NNC(=O)Cc1c[nH]c2ccccc12 | % | 5.85 |
| O=c1cc(-c2ccccc2)[nH]c2[nH]n(-c3ccccc3)c(=O)c12 | % | 24.8 |
| COc1cc(Br)c(C=Nc2cccc3cc(OC)c(OC)cc23)cc1OC | % | -9.9 |
| NC(=S)NNC(=O)c1ccc([N+](=O)[O-])cc1 | % | -3.1 |
| CC12CCC3c4ccc(OC(=O)C56C=CC(=O)C5C5C=CC6CC5)cc4CCC3C1CCC2=O (stereo unspecified) | % | -2.2 |
| ClCC1COC(CCc2ccccc2)O1 (stereo unspecified) | % | -10.9 |
| OCCN(CCO)c1cc(/C=C/c2cccc3ccccc23)nc2ccccc12 | % | 39.6 |
| O=C1CCCCC1CN1CCOCC1 (stereo unspecified) | % | -5.3 |
| N#Cc1c(-c2ccccc2)c(-c2ccccc2)cc2c(=O)c3ccc(Cl)cc3[nH]c12 | % | -2.9 |
| O=C(O)C1C2OC3C(OC(=O)C31)C2Cl (stereo unspecified) | % | 9.85 |
| c1ccc(SCN(CSc2ccccc2)c2ccccc2)cc1 | % | 13.8 |

====

Assay: NCI Yeast Anticancer Drug Screen. Data for the mec2-1 strain (AID 157)
Settings: S. cerevisiae mec2-1 strain, at 50.0 µM
The panel holds about 79,000 compounds, 15% with a hit somewhere; the sample as a whole holds those more often. The source made the active and inactive calls. Cut-off read from the data, not from the text of the source: active = growth inhibition above about 70%; inactive = the rest.
Possible outcomes: active, inactive

| COMPOUND | CAT |
| --- | --- |
| CCOC(=O)C(NC(C)=O)C(O)c1ccc(Cl)cc1Cl (stereo not given) | inactive |
| CCOC(=O)c1[nH]c2ccsc2c1C[N+]1(C)CCCCC1 | inactive |
| C[N+](C)([O-])Cc1ccccc1 | inactive |
| COC(=O)C1(CC(=O)c2cc(Cl)ccc2Cl)NC(=S)NC(=O)C1C#N (stereo not given) | inactive |
| Nc1nc(Cl)cc(NCCCNc2cc(Cl)nc(N)n2)n1 | inactive |
| CC(=O)OC1C(=C(Br)Br)C(COC(=O)c2ccccc2)OC1n1cnc2c(NC(=O)c3ccccc3)ncnc21 (stereo not given) | inactive |
| CCCC(CCC)C(=O)OCC(=O)c1ccc(-c2ccccc2)cc1 | inactive |
| COc1ccc(-c2oc(/C=N/NC(N)=S)c([N+](=O)[O-])c2-c2ccc(OC)c(OC)c2)cc1OC | inactive |
| N#Cc1ccc[n+](Cc2c(Cl)cccc2Cl)c1 | inactive |
| CCC(=O)Oc1ccc(CCC(C)=O)cc1 | inactive |
| CC1COC(C)(C)O1 (stereo not given) | inactive |
| Cc1ccc(S(=O)(=O)N/N=C2\C3CC4CC(C3)C2C4)cc1 (stereo not given) | inactive |
| O=Cc1cccs1 | inactive |
| C#CN1C(=O)c2c(c(-c3ccccc3)c(-c3ccc(Oc4ccc(-c5c(-c6ccccc6)c6c(c(-c7ccccc7)c5-c5ccccc5)C(=O)N(C#C)C6=O)cc4)cc3)c(-c3ccccc3)c2-c2ccccc2)C1=O | inactive |
| O=C(O)c1cnc(Cl)c(Br)c1 | inactive |
| CCOC(=O)CCC[Si](CC)(CC)CC | inactive |
| CC(/C=N/N(C)C1=NCCCCN1)=N/N(C)C1=NCCCCN1 | inactive |
| CNc1ccc(Br)cc1[N+](=O)[O-] | inactive |
| CNCCSSCCN | inactive |
| Cc1nn(C(=O)c2ccccc2O)c2c1C(c1ccccc1)SC(N)=N2 (stereo not given) | inactive |
| CCN(CC)CCC(=O)N1CCc2c([nH]c3ccccc23)C1c1cccnc1 (stereo not given) | inactive |
| O=C1C(Cl)=C(Nc2ccc([N+](=O)[O-])cc2)C(=O)c2ccccc21 | inactive |
| c1cn(C23C4C5C6C4C2C6C53)cn1 (stereo not given) | inactive |
| Clc1ccc(CSc2cnnc(SCc3ccc(Cl)cc3Cl)c2SCc2ccc(Cl)cc2Cl)c(Cl)c1 | inactive |
| O=[N+]([O-])c1ccc(Nc2nc3ccccc3s2)cc1 | inactive |
| O=C(Nc1ccccc1)c1nn(-c2cc(S(=O)(=O)O)c([N+](=O)[O-])cc2Cl)[n+](-c2cc(S(=O)(=O)[O-])c([N+](=O)[O-])cc2Cl)n1 | inactive |
| Cc1nc(=S)[nH][nH]1 | inactive |
| CC1(c2ccc(-c3ccccc3)cc2)NC(=O)NC1=O (stereo not given) | inactive |
| C/C(=C\c1ccccc1)C(O)C(=O)c1nc2ccc(Cl)cc2[nH]c1=O (stereo not given) | inactive |
| C=C(C)C1CCC2(C)CC3C(=C)CC(O)C(O)C3(C)CCC12 (stereo not given) | active |
| CC(NC(=O)C(NC(=O)c1ccc[n+](Cc2ccccc2)c1)C(C)C)C(N)=O (stereo not given) | inactive |
| Cc1cc2nc(/N=C/c3nc(O)c(C)[nH]3)[nH]c2cc1C | inactive |
| CCCC(=O)Nc1cn(COC)c(C(=O)N2C[C@@H]3C[C@]34C2=CC(=O)c2[nH]cc(C)c24)n1 | inactive |
| Nc1cccc2c1C(=O)OC2=O | inactive |
| Cc1ccc(S(=O)OCC23CC4CC(CC(C4)C2)C3)cc1 (stereo not given) | inactive |
